Reference source for all entries: patent US20260130925A1

Quick reference for pIC50 among some compounds
- assay.system: PI3Kα H1047R in T47D cells (Homo sapiens, UniProt P42336, H1047R)
- Construct: endogenous in cells
- Sequence (P42336 whole entry H1047R): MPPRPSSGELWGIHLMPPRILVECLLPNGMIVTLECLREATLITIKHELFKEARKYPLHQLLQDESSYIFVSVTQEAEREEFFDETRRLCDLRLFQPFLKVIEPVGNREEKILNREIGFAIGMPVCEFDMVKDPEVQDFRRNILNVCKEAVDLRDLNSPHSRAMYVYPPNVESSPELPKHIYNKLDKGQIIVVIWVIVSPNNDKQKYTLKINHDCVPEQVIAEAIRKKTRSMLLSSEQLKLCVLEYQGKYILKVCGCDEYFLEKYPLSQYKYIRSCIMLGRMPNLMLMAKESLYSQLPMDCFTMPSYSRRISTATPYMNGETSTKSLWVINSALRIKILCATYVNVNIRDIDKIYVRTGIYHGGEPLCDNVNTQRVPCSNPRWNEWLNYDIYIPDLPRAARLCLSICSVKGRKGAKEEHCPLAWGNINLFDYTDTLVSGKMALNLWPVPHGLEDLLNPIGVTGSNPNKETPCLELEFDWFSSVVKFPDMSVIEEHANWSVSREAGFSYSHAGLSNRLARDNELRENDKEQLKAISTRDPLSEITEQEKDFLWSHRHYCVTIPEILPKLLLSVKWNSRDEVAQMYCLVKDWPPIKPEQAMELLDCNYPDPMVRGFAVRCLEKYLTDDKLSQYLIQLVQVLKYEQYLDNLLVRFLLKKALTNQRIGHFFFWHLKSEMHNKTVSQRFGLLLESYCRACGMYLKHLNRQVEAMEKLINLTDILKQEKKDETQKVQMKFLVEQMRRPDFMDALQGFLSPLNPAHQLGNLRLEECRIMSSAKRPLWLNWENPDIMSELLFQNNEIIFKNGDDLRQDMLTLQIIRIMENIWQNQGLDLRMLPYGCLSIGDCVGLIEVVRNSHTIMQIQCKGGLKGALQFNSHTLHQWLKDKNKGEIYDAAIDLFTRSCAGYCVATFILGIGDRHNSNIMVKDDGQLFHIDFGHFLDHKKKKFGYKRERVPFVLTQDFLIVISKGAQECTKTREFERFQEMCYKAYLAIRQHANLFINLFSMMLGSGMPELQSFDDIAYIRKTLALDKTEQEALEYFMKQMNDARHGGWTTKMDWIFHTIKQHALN
- Sequence (P27986 whole entry partner): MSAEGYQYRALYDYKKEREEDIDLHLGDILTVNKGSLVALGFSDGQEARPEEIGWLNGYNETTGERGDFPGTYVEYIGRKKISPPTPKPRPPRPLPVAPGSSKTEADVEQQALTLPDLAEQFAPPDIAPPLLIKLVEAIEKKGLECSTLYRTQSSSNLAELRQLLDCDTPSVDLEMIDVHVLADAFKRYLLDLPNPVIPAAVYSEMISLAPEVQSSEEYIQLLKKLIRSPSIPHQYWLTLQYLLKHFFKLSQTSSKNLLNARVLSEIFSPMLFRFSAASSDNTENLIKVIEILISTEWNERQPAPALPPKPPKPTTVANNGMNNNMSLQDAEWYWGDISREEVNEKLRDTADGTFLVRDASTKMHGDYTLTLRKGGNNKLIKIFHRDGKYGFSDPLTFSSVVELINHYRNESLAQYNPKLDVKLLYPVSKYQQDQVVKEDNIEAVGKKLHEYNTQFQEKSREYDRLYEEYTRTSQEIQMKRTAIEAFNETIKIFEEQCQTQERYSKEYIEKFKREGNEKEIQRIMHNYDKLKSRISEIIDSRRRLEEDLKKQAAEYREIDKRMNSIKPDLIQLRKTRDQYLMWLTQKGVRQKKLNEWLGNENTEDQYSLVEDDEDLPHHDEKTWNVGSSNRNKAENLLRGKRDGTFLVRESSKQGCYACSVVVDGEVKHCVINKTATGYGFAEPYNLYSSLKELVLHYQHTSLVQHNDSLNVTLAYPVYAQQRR
- method.description: PI3Kα cellular assay: T47D pAKT S473 HTRF
- cond: T47D cells (H1047R), serum starved, 1 hr compound, 20 ng/ml EGF 10 min
pIC50: −log10 of the molar value.

# compound, pIC50
records = [
    ("Cc1cc([C@@H](C)Nc2ccccc2C(=O)O)c2cc(-c3ccc4c(c3)c(C)nn4C)n(C)c(=O)c2c1", "> 6.12"),
    ("Cc1cc([C@@H](C)Nc2ccccc2C(=O)O)c2nc(-c3cnc(C)c(Cl)c3)n(C)c(=O)c2c1", "> 6.12"),
    ("Cc1cc(C(C)Nc2ccccc2C(=O)O)c2cc(N3Cc4ccccc4C3)ncc2c1 (stereo not shown)", "5.70 to 6.12"),
]

Request: Please tell me: pIC50 of "Cc1cc([C@H](C)Nc2ccccc2C(=O)O)c2nc(-c3ccc(F)cc3)n(C)c(=O)c2c1" , system PI3Kα H1047R in T47D cells (Homo sapiens, UniProt P42336, H1047R)?
Result: ≤ 5.70

Request: What value of pIC50 on PI3Kα H1047R in T47D cells (Homo sapiens, UniProt P42336, H1047R) does "Cc1cc([C@@H](C)Nc2ccccc2C(=O)O)c2nc(N3CCC(C)(C)CC3)ncc2c1" have?
Result: > 6.12

Request: Given the entry "Cc1cc([C@H](C)Nc2ccccc2C(=O)O)c2nc(N3CCC(C)(C)CC3)nc(O)c2c1" , what pIC50 was observed with PI3Kα H1047R in T47D cells (Homo sapiens, UniProt P42336, H1047R)?
Result: 5.70 to 6.12

Request: Which measured pIC50 belongs to Cc1cc(C(C)Nc2ccccc2C(=O)O)c2nc(N3Cc4ccccc4C3)nc(NC3CC3O)c2c1 (stereo not shown) , tested on PI3Kα H1047R in T47D cells (Homo sapiens, UniProt P42336, H1047R)?
Result: 5.70 to 6.12

Request: For PI3Kα H1047R in T47D cells (Homo sapiens, UniProt P42336, H1047R), provide pIC50 of Cc1cc(C(C)Nc2ccccc2C(=O)O)c2nc(N3CCC(C)(C)CC3)nc(NC(=O)CCl)c2c1 (stereo not shown) please.
Result: ≤ 5.70

Request: Form field - read-out: pIC50; system: PI3Kα H1047R in T47D cells (Homo sapiens, UniProt P42336, H1047R); submitted item: "Cc1cc([C@@H](C)Nc2ccccc2C(=O)O)c2cc(-c3ccnc(C4CC4)c3)n(C)c(=O)c2c1"
Result: ≤ 5.70

Request: Please provide the recorded pIC50 for "Cc1cc([C@H](C)Nc2ccccc2C(=O)O)c2nc(N3CCC(C)(C)CC3)nc(C#N)c2c1" , tested on PI3Kα H1047R in T47D cells (Homo sapiens, UniProt P42336, H1047R).
Result: ≤ 5.70

====

- assay.system: PI3K H1047R (Homo sapiens, UniProt P42336, H1047R)
- Sequence (P42336 whole entry H1047R): as the sequence (P42336 whole entry H1047R) above
- Sequence (P27986 whole entry partner): as the sequence (P27986 whole entry partner) above
- method.description: PI3K H1047R ADP-Glo (PI/PS)
- Assay type: biochemical
- Parameters: reference not given here
- cond: H1047R selectivity
assay.endpoint: PI3K H1047R ADP-Glo (PI/PS) IC50: H1047R Selectivity

# compound, value.reported
measured = [
    ("Cc1cc([C@@H](C)Nc2ccccc2C(=O)O)c2nc(-c3ccc(F)cc3)n(C)c(=O)c2c1 (single isomer, unassigned)", "A (A denotes >20-fold)"),
    ("Cc1cc(C(C)Nc2ccccc2C(=O)O)c2cc(-c3ccnc(C4CC4)c3)nc(C(N)=O)c2c1 (stereo not drawn)", "A (A denotes >20-fold)"),
    ("Cc1cc([C@@H](C)Nc2ccccc2C(=O)O)c2cc(N3Cc4ccccc4C3)ncc2c1", "A (A denotes >20-fold)"),
    ("Cc1cc(C(C)Nc2ccccc2C(=O)O)c2nc(N3CCC(C)(C)CC3)nc(C#N)c2c1 (stereo not drawn)", "C (C denotes ≤5-fold)"),
    ("Cc1cc([C@@H](C)Nc2ccccc2C(=O)O)c2cc(-c3ccc4c(c3)c(C)nn4C)ncc2c1", "A (A denotes >20-fold)"),
    ("Cc1cc([C@@H](C)Nc2ccccc2C(=O)O)c2cc(-c3ccc(F)cc3)n(C)c(=O)c2c1", "A (A denotes >20-fold)"),
    ("Cc1cc([C@@H](C)Nc2ccccc2C(=O)O)c2cc(N3CCOCC3)ncc2c1", "A (A denotes >20-fold)"),
    ("Cc1cc([C@H](C)Nc2ccccc2C(=O)O)c2cc(-c3ccc4c(c3)c(C)nn4C)ncc2c1", "C (C denotes ≤5-fold)"),
]

Request: Record lookup: for PI3K H1047R (Homo sapiens, UniProt P42336, H1047R), what PI3K H1047R ADP-Glo (PI/PS) IC50: H1047R Selectivity belongs to Cc1cc(C(C)Nc2ccccc2C(=O)O)c2nc(N3CCC(C)(C)CC3)ncc2c1 (stereo not drawn) ?
Result: A (A denotes >20-fold)

Request: Please provide the recorded PI3K H1047R ADP-Glo (PI/PS) IC50: H1047R Selectivity for "Cc1cc([C@H](C)Nc2ccccc2C(=O)O)c2cc(-c3ccnc(C4CC4)c3)n(C)c(=O)c2c1" , tested on PI3K H1047R (Homo sapiens, UniProt P42336, H1047R).
Result: A (A denotes >20-fold)

Request: Param readout = PI3K H1047R ADP-Glo (PI/PS) IC50: H1047R Selectivity; param system = PI3K H1047R (Homo sapiens, UniProt P42336, H1047R); param query = Cc1cc(C(C)Nc2ccccc2C(=O)O)c2cc(N3CCOCC3)ncc2c1 (stereo not drawn) ; response: value
Result: A (A denotes >20-fold)

Request: Lookup: PI3K H1047R ADP-Glo (PI/PS) IC50: H1047R Selectivity / PI3K H1047R (Homo sapiens, UniProt P42336, H1047R) / Cc1cc(C(C)Nc2ccccc2C(=O)O)c2cc(N3Cc4ccccc4C3)nc(O)c2c1 (stereo not drawn)
Result: A (A denotes >20-fold)

====

- assay.system: PI3Kα H1047R in T47D cells (Homo sapiens, UniProt P42336, H1047R)
- Construct: endogenous in cells
- method.description: PI3Kα cellular assay: T47D pAKT S473 HTRF
- cond: T47D cells (H1047R), serum starved, 1 hr compound, 20 ng/ml EGF 10 min
pIC50: −log10 of the molar value.
Reported pIC50 values follow for various compounds

Below, 4 compounds whose answers are already recorded.
# compound, assay.system, value.reported
measured = [
    ("Cc1cc(C(C)Nc2ccccc2C(=O)O)c2cc(-c3ccc4c(c3)c(C)nn4C)ncc2c1 (centres unmarked) [Compound 88]", "PI3Kα H1047R in T47D cells (Homo sapiens, UniProt P42336, H1047R)", "> 6.12"),
    ("Cc1cc([C@@H](C)Nc2ccccc2C(=O)O)c2nc(N3Cc4ccccc4C3)nc(OC3COC3)c2c1 [Compound 146]", "PI3Kα H1047R in T47D cells (Homo sapiens, UniProt P42336, H1047R)", "> 6.12"),
    ("Cc1cc([C@@H](C)Nc2ccccc2S(N)(=O)=O)c2nc(-c3cccnc3)n(C)c(=O)c2c1 [Compound 142]", "PI3Kα H1047R in T47D cells (Homo sapiens, UniProt P42336, H1047R)", "> 6.12"),
    ("Cc1cc(C(C)Nc2ccccc2C(=O)O)c2nc(N3Cc4ccccc4C3)nc(N3CC(O)C3)c2c1 (centres unmarked) [Compound 63]", "PI3Kα H1047R in T47D cells (Homo sapiens, UniProt P42336, H1047R)", "5.70 to 6.12"),
]

Request: Any idea what pIC50 was measured for Cc1cc(C(C)Nc2ccccc2C(=O)O)c2[nH]c(N3CCOCC3)nc(=O)c2c1 (centres unmarked) [Compound 19] ?
Result: 5.70 to 6.12

====

- assay.system: PI3K H1047R (Homo sapiens, UniProt P42336, H1047R)
- method.description: PI3K H1047R ADP-Glo (PI/PS)
- cond: PI/PS substrate
pIC50: −log10 of the molar value.
assay.endpoint: pIC50

Please review the entries below; each comes with its answer.
# molecule, pIC50
data = [
    ("Cc1cc(C(C)Nc2ccccc2C(=O)O)c2nc(-c3cc(C)c4oc(=O)[nH]c4c3)ncc2c1 (stereo not shown) [Compound 5]", "≤ 5.00"),
    ("Cc1cc(C(C)Nc2ccccc2C(=O)O)c2cc(-c3ccc4c(c3)c(C)nn4C)ncc2c1 (stereo not shown) [Compound 88]", "> 6.00"),
    ("Cc1cc(C(C)Nc2ccccc2C(=O)O)c2cc(-c3ccnc(C4CC4)c3)n(C)c(=O)c2c1 (stereo not shown) [Compound 82]", "> 6.00"),
    ("Cc1cc(C(C)Nc2ccccc2C(=O)O)c2nc(-c3ccc4c(c3)c(C)nn4C)n(C)c(=O)c2c1 (stereo not shown) [Compound 40]", "> 6.00"),
]

Request: Form field: reported pIC50 of Cc1cc(C(C)Nc2ccccc2C(=O)O)c2cc(N3Cc4ccccc4C3)nc(O)c2c1 (stereo not shown) [Compound 51]
Result: > 6.00

Request: pIC50 for Cc1cc(C(C)Nc2ccccc2C(=O)O)c2cc(N3CCOCC3)ncc2c1 (stereo not shown) [Compound 37] ?
Result: > 6.00

Request: State the recorded pIC50 for this entry: Cc1cc([C@@H](C)Nc2ccccc2C(=O)O)c2nc(-c3ccc4c(c3)c(C)nn4C)n(C)c(=O)c2c1 [Compound 41]
Result: ≤ 5.00

Request: Query (molecule): Cc1cc(C(C)Nc2ccccc2C(=O)O)c2cc(-c3ccnc(C4CC4)c3)nc(C(N)=O)c2c1 (stereo not shown) [Compound 73] ; field requested: pIC50
Result: > 6.00

Request: Fill blank: measured pIC50 of the molecule Cc1cc([C@@H](C)Nc2ccccc2C(=O)O)c2cc(-c3ccc4c(c3)c(C)nn4C)ncc2c1 [Compound 84] is ____.
Result: > 6.00

Request: Entry under review: Cc1cc([C@H](C)Nc2ccccc2C(=O)O)c2cc(-c3ccc(F)cc3)n(C)c(=O)c2c1 [Compound 75] . Reported pIC50?
Result: ≤ 5.00

Request: For the molecule Cc1cc(C(C)Nc2ccccc2C(=O)O)c2nc(-c3ccc(F)cc3)n(C)c(=O)c2c1 (stereo not shown) [Compound 38] , what pIC50 is on record?
Result: > 6.00

Request: Look up pIC50: Cc1cc([C@@H](C)Nc2ccccc2C(=O)O)c2nc(N3CCC(C)(C)CC3)ncc2c1 [Compound 8]
Result: > 6.00

Request: Please look up its pIC50: Cc1cc(C(C)Nc2ccccc2C(=O)O)c2[nH]c(N3CCOCC3)nc(=O)c2c1 (stereo not shown) [Compound 19]
Result: 5.00 to 6.00

Request: Give its pIC50 value. Item: Cc1cc(C(C)Nc2ccccc2C(=O)O)c2cc(OC3CCOCC3)ncc2c1 (stereo not shown) [Compound 74]
Result: > 6.00

Request: Quick check: pIC50 of Cc1cc([C@H](C)Nc2ccccc2C(=O)O)c2cc(-c3ccnc(C4CC4)c3)n(C)c(=O)c2c1 [Compound 78] ?
Result: > 6.00

Request: Quick check: pIC50 of Cc1cc([C@@H](C)Nc2ccccc2C(=O)O)c2nc(-c3ccc(F)cc3)n(C)c(=O)c2c1 (single isomer, unassigned) [Compound 32] ?
Result: > 6.00
